Target protein (sequence): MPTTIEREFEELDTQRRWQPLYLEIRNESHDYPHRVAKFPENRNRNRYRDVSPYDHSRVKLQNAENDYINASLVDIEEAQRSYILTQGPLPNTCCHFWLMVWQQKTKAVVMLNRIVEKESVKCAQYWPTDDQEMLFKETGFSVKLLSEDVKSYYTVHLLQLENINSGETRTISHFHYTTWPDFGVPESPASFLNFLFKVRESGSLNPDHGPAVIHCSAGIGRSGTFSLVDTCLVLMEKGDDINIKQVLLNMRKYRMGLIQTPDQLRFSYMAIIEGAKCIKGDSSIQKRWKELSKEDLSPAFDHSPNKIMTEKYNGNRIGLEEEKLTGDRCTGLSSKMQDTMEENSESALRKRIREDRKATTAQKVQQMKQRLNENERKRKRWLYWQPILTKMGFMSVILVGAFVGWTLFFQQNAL
endpoint: pIC50
Just so you know, pIC50 here is -log10 of the concentration in molar units; reply with that number alone.

Use the examples below as a reference point.
{"smi": "O=C1NC(=O)/C(=C/c2ccc(OCc3ccc(Cl)c(Cl)c3)cc2)N1", "endpoint": "pIC50", "valueReported": 4.47}
{"smi": "O=C1NC(=O)/C(=C/c2ccc(OCc3ccc(Cl)cc3Cl)cc2)N1", "endpoint": "pIC50", "valueReported": 4.94}
{"smi": "O=C1NC(=O)/C(=C/c2cccc(OCc3ccc(Cl)c(Cl)c3)c2)N1", "endpoint": "pIC50", "valueReported": 4.47}

Please examine the following record next.
Give the value of pIC50 reported for the following: O=C1NC(=O)/C(=C/c2ccccc2OCc2cccc(Cl)c2)N1
4.43

* * *

Molecular target: Tyrosine-protein phosphatase non-receptor type 1 (Homo sapiens)
Sequence (P18031 whole entry): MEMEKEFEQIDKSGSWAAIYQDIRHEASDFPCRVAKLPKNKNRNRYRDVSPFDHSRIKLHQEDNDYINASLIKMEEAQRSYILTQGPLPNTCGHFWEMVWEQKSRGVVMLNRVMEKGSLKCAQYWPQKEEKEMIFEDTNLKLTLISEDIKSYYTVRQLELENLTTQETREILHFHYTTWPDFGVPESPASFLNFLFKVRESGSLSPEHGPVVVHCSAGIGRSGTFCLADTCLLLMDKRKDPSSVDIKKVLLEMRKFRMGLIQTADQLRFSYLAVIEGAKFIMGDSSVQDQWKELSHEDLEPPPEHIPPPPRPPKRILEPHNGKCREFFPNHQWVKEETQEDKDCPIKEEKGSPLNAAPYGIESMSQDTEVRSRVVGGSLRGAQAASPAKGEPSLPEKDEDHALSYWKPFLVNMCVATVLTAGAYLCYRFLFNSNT
Label yes when IC50 < 10 µM; otherwise no.

Hello, I'm reviewing records and need to know if IC50 of O=C1NC(=O)/C(=C/c2cccc(OCCc3ccccc3)c2)N1 is below 10 µM. Could you check?
no

Regarding O=C1NC(=O)/C(=C/c2ccccc2OCc2cccc(Cl)c2)N1 , kindly confirm whether its IC50 is beneath 10 µM.
no

Does the reported IC50 of the following molecule sit strictly below 10 µM? O=C1NC(=O)/C(=C/c2cccc(OCc3ccc(Cl)c(Cl)c3)c2)N1
yes

IC50 under 10 µM? Item: COc1ccc(COc2ccc(/C=C3\NC(=O)NC3=O)cc2)cc1
yes

# strict comparison: is reported IC50 < 10 µM? input = O=C1NC(=O)/C(=C/c2ccccc2OCc2ccc(Cl)cc2)N1
yes

The values you see were collected from BindingDB's records for doi:10.1111/cbdd.12189.
